target: P2L-1Ca; assay: competitive EIA: unlabeled antigen varied against HRP-labeled 19P2 ligand (17-31) on P2L-1C
measure_name: pIC50
pIC50 field: float, defined as -log10 of concentration (mol/L).

Ask: What does the record list as pIC50 for SRTHRHSMEIRTPDINPAWYASRGIRPVGRX (C-terminal amide) [Human 19P2 ligand (1-31)] ?
Reply: 8.52
